# measurement notes: NCI Yeast Anticancer Drug Screen. Data for the mec2-1 strain (AID 157)
# assay conditions: S. cerevisiae mec2-1 strain, at 50.0 µM
This is part of a sample that, as a whole, favours compounds with a hit. Of some 79,000 tested, about 15% had one in any assay. The source made the active and inactive calls. No stated cut-off is given here; in the data, active means growth inhibition above about 70%; inactive means the rest.
Assign a class; possible classes are true (1) = active, false (0) = inactive

Please review the following examples before continuing.
Request: // outcome(item) with item = CC1CCC(C)(C)c2cc([N+](=O)[O-])cc([N+](=O)[O-])c21 (stereo unspecified)
Response: false (0)

Request: // outcome(item) with item = COc1ccc2c(Cc3cccc([N+](=O)[O-])c3)cncc2c1O
Response: false (0)

Request: // outcome(item) with item = N#CC#Cc1cccc(C#CC#N)c1
Response: true (1)

Request: // outcome(item) with item = CC1C=CC(C)C2C(=O)C3C(C)C=CC(C)C3C(=O)C12 (stereo unspecified)
Response: false (0)

Request: // outcome(item) with item = Cc1c(C(C)(C)C)cc(C(C)(C)C)c(O)c1CN(C)Cc1c(C)c(C(C)(C)C)cc(C(C)(C)C)c1O
Response: true (1)

Request: // outcome(item) with item = Cc1cc(O)c(NCCN(C)C)c2c(=O)c3ccccc3sc12
Response: true (1)

Request: // outcome(item) with item = NC(CCl)=NCC1C2CC3CC(C2)CC1C3 (stereo unspecified)
Response: true (1)

Request: // outcome(item) with item = O=C1C2=C(C(=O)c3cnccc31)C1C=CC2CC1 (stereo unspecified)
Response: false (0)

Request: // outcome(item) with item = CC(c1ccc2cccc(F)c2c1)c1ccccc1C(=O)O (stereo unspecified)
Response: true (1)

Request: // outcome(item) with item = O=C1C=CC(=O)c2nc3ccccc3nc21
Response: true (1)

// next entry
Request: // outcome(item) with item = CCCCCCCCCCCCCCCCCC[N+]1(C)CCC[N+](C)(CCCCCCCCCCCCCCCCCC)CC1 (stereo unspecified)
Response: true (1)
